# Test system: MS2 coat protein
# Assay Overview: apparent KD of MS2 coat protein; designed switch direction (-1 OFF switch, 1 ON switch): 1; higher = weaker reporter binding
# Details: Eterna round: R98; input ligand: FMN 200 uM
Please use fulfilled whenever apparent KD of MS2 coat protein is not below 300 nM, and not fulfilled whenever it is.

Sequence Data	Answer Label
AGCGGUAGGACAGGAUAUGGUGACUUCAAGCGGCCAGAAGGGUCCCGACAUGAGGAUCACCCAUGUCUUCCAGGCAGGGAGCGC [Teanisradi]	fulfilled
GCAGAAGGUGCGGAGGAUCACCCUGUAAGGAUAUGCAUUAGCAAGGAUAUACAGAGGAUCACCCUGUAGAAGGUGCACUACUCA [pwkr2 ssNG3 DX.3]	fulfilled
UAUAUAUGGUGAGGAUAUGCAGAGGAUCACCCUGUAGAAGGCAUCAGGGUAGAAGGUGCAAGGAUCACCUGUAAGGAUAUAUCC [pwkr2 ssNG1 DX.30]	fulfilled
CCCUCCAGAAGAGGGACAUGAGGAUCACCCAUGUAGGCUGCACAGGAUAUCGAUCGGAGGCGGUACGAGAAGGGUGACGUCAUU [Atleis]	not fulfilled
GACGAAAUCUUAGGAUAUGCUCAGGAAUACUGAGCAGAAGGAAGAUAUACCUGAGGAUCACCCAGGUUAAACUGGACGUCAAUA [Same State NG1 - A3C, U17G Submission 8I U7A]	not fulfilled
CACACAUGGUGAGGAUAUGCAGAGGAUCACCCUGUAGAAGGCAUCAGGGUAGAAGGUGCAAGGAUCACCUGUAAGGAUAUAUCC [pwkr2 ssNG1 DX.27]	fulfilled
AAAACAUGAGGAUCACCCAUGUAAAGAACGGUUAAUUAAAGUGAGGAUAUACAAAAUUUUAUAUAGUAGAAGGCACUGGGUACA [JR_SSNG3_Sub022]	not fulfilled
GUAGCAUACCGAGGAUAUUCAUCCGGAUUACGGACAUGAGGAUCACCCAUGUGGCGAAAGCCUUGGGAGAAGGCGGAAUGCUAC [Xeinanis 75 33]	not fulfilled
GGAUCCAACACAGGAUAUGCUGGACUUUGUCCAGCAGAAGGGUGAAACAUGAGGAUCACCCAUGUAUGGAUCCAUAUAUUUAAU [Denovo 32]	not fulfilled
CCAGAUGUGUGAGGAUAUAGAGUGGAAUACACUCUAGAAGGUAUGUGAAAACAUGAGGAUCACCCAUGUGAUUAAUCAUCUGGA [SameState #2 NG1]	not fulfilled
UAUUGCGCCGUAAAAUAACACAUGAGGAUCACCCAUGUGACACAGGAUAUAACCAGAUCAGAAAGUUAGAAGGGUGAAAACGGC [Edraed Mod 3 - Jieux - Same State NG3]	not fulfilled

====

# Tested on: MS2 coat protein
# Assay Overview: apparent KD of MS2 coat protein; higher = weaker reporter binding
# Details: Eterna round: R107; input ligand: arginine 13.2 mM
Quantity Name: apparent KD of MS2 coat protein (nM)

Sequence Data	Result Units	Test Result
UGUAUGUGAUUUGAUACCAGACCAGCUGGUGGUACCUGAGGAACACCCAGGUAGGUUUGGGUCCCUUGGCAGCAAAUCGCAUACU [SS Theo B #24 Ms7]	nM	36.2
AAGUGGCACGGAAGGAGCGAGUUUACCUAUUACAUGAGGAUCACCCAUGUGUAUAAUGGGACUCAGGUAGGUCGCCGUUGUCACU [Same State Arginine B GF 25]	nM	31.5
CUAAGAGCGGCGGCCGCCACUGGUAACCAAGAGGCGGAGCCUCUGACAUGAGGAUCACCCAUGUUCAGGACCGGGUCGUCUUAGA [#07 Same State - Tryptophan B]	nM	7.23
UGUAUGGACUGAAGGAGCGGGUUGAUAAUCUGAGGAUCACCCAGGUAAAAGGCGAAAGCCGCCCAGGUAGGUCGCAGUCCAUACU	nM	20.5
GGGUCGGGCGCGGCCGCCACUGCGGUGAUGUGACAUGAGGAUCACCCAUGUUGUCAUGUGGCACAUAGGACCGGGCGCCCGGCCC [#1 Exclusion - Tryptophan B Attempt #8 (HarryS)]	nM	34.7
CGUAUUACGAAAGUAGUACGUAGUUCGAGUCGAGGACCGGUACGGCCGCCACUCGGACAUGAGGAUCACCCAUGUAGCGAAAGCU [Tryptophan A 23]	nM	68.2

====

# System: MS2 coat protein
# Assay Overview: apparent KD of MS2 coat protein; designed switch direction (-1 OFF switch, 1 ON switch): -1; higher = weaker reporter binding
# Details: input ligand: FMN 200 uM
// class assignment uses apparent KD of MS2 coat protein with these ranges: interval 1 = under 30 nM, interval 2 = from 30 nM up to 100 nM, interval 3 = 100 nM and over

Sequence Data	Answer Label
CCUAGUUGGUAAGGAUAUCCUACAUUGUUCUGACCCGGGCAUGCUACAUGAGGAUCACCCAUGUGGGAGAAGGUGCGUCAUCGC [Design 16] (Eterna round: R96, puzzle: Exclusion NG 2)	interval 2
AAUUAAGCAAGCAGAUCCCACAUGAGGAUCACCCAUGUGCUCGUCUUAUAAGGUACUGUGACGAAAGUCACGGUACC [Mat - Sensor, turn-off var - Eli Mod - D72] (Eterna round: R97, puzzle: Sensor, turn-off variant 1)	interval 3
GUUGUGUGAGGAUAUGCCUGGCCGUGAGGCCAGAUUGGGUGGCAGAAGGUACAUGAGGAUCACCCAUGUACGGG [salish99_ex4_4_005] (Eterna round: R97, puzzle: Exclusion 4)	interval 2
GAAAACGCAGAGGAUAUUUCAGAUCAAAGCUGCAAAGAAGGCUGCACAUGAGGAUCACCCAUGUGGUCUUCAAU [Mat - Exclusion 6 - JL Mod - D8] (Eterna round: R97, puzzle: Exclusion 6)	interval 3
AACCUGAGGCUUUGCUUUAGGUGUACAUGAGGAUCACCCAUGUAGGAUAUGGUAGGCUUUGCUUACCAGAAGGACAUGUUAAUU [JL ENG3 1.11] (Eterna round: R96, puzzle: Exclusion NG 3)	interval 3
AUAAGGUCAGGAUAUGCUUGGCGGAUUCUGGUGUCCAAAUGACAUGAGGAUCACCCAUGUAGAAGGGACAUCAG [Leonlexe] (Eterna round: R97, puzzle: Exclusion 2)	interval 1
UAUCAUGUAGGAUAUACGUAGCUAUGACCCUCGAGAACUAUACAUGAGGAUCACCCAUGUAGAAGGGCGACUUU [Eternabot (L1) Solution 34] (Eterna round: R97, puzzle: Exclusion 2)	interval 1
UCUGGUCAAGGAUAUACAAUCGUGCUUCGGCACGUAAGAUCACAUGAGGAUCACCCAUGUAGAAGGUGACCAGA [E2/1-C3] (Eterna round: R97, puzzle: Exclusion 2)	interval 3
AAGACUAGAGGAUAUACAUGAGGAUCACCCAUGUAACUGUCAGGUGACUGACGGAAAUGUAGAAGGCUAGUCAA [Mat - Exclusion 3 - JL mod - D81] (Eterna round: R96, puzzle: Exclusion 3)	interval 2
UUGUUAUGUGUAGGAUAUGCGUAUUAUUAUUAUGCAGAAGGACAUGAGGAUCACCCAUGUGUAUUAUUAUUAUAUAUUAUAUAU [Title] (Eterna round: R96, puzzle: Exclusion NG 1)	interval 2
AUUAACUUAGGAUAUACAUGAGGAUCACCCAUGUCCCACCCGUUACCCAUGACCAUAUGUAGAAGGAAGAAGAA [Exy#9] (Eterna round: R97, puzzle: Exclusion 3)	interval 2
UUAAAUCAUGUAGGAUAUGCGUGGCGAAGCUAUGCAGAAGGACAUGAGGAUCACCCAUGUUCUGCGGUCUGCGUACAGAUCGCA [JL ENG1 1.05] (Eterna round: R96, puzzle: Exclusion NG 1)	interval 3
AAUUUACAUGAGGAUCACCCAUGUGAGGAUAUAUGUUUAAAUUUUUUUUUUUUUUUUCAUAGAAGGCGCGUGAU [JR_Exc1_Sub048] (Eterna round: R97, puzzle: Exclusion 1)	interval 1
UAUAAACAUGAGGAUCACCCAUGUGAGGAUAUCAAAACCAGAGCGGAUCUCUGGCCCAUGAGAAGGUGCAUGGU [ElNandoxlusion 8 - Jieux - Exclusion 1] (Eterna round: R97, puzzle: Exclusion 1)	interval 3
UAUAUGUCAGGAUAUUAGUAGUAAAUAAAUAAAAUUAUUACUGAGAAGGGACAUGAGGAUCACCCAUGUACCUU [Salish 062 v32] (Eterna round: R97, puzzle: Exclusion 4)	interval 1
UCAUGCUAAGGAUAUGACGUCGGCUACAUGAGGAUCACCCAUGUGGGUUCGUUAUGGCCAUUAGAAGGUAGCGAUU [Eternabot (L2) Solution 95] (Eterna round: R97, puzzle: Exclusion 5)	interval 1
AAAUAGUCAGGAUAUACAUGAGGAUCACCCAUGUAAACUUUUAGUUUAAUUUGAAUGUGUAGAAGGGACAUAAA [Ex3 #50] (Eterna round: R97, puzzle: Exclusion 3)	interval 2
CCAGGCAAUUCCACUUGUAACAUGAGGAUCACCCAUGUGACCUGGUAUCAAGGCAGCUCGUCAUCCCACCAUAUUCA [Eternabot (L1) Solution 23] (Eterna round: R97, puzzle: Sensor, turn-off variant 1)	interval 1
GGCACACAUGUAGGAUAUCUGCACGUGUAGUGCAGAGAAGGACAUGAGGAUCACCCAUGUAAUUAAGAUCAAUUAUUAAGUGCC [ENG1/3-A3] (Eterna round: R96, puzzle: Exclusion NG 1)	interval 3

Data provenance is the supplement of paper PMC9170038.
